Recorded IC50 values for a group of compounds are listed next.
- Test system: MCF7
- Measurement Notes: Cytotoxicity against human MCF7 cells assessed as reduction in cell viability using compound addition to cell culture cells in log phase of growth and incubated for 48 hrs by MTT assay
- Format: functional, cell-based
- Study Conditions: Homo sapiens, MCF7, 48 h; read-out: IC50
A number alone suffices; assume µM.

COC(=O)CCC(=O)OCC1=C(C)C[C@H]([C@@H](C)[C@H]2CC[C@H]3[C@@H]4C[C@H]5O[C@]56[C@@H](O)C=CC(=O)[C@]6(C)[C@H]4CC[C@]23C)OC1=O; 1.6

Please tell me: IC50 of COC(=O)CCC(=O)OCC1=C(C)C[C@H]([C@@H](C)[C@H]2CC[C@H]3[C@@H]4C[C@H](Cl)[C@]5(O)[C@@H](OC(=O)CCC(=O)OC)C=CC(=O)[C@]5(C)[C@H]4CC[C@]23C)OC1=O , system MCF7?
4.8

Then CC(=O)OCC1=C(C)C[C@H]([C@@H](C)[C@H]2CC[C@H]3[C@@H]4C[C@H]5O[C@]56C(=O)C=CC(=O)[C@]6(C)[C@H]4CC[C@]23C)OC1=O ?
6.8
